tested on: Escherichia coli; experiment: Antibacterial activity against Escherichia coli NCIM 2688 measured after 8 hrs by spectrophotometric method; format: functional; settings: NCIM 2688, 8 h
Task for the reader: assign each of the following compounds its reported MIC.

Item: "NC[C@H]1CN(c2ccc(N3CC4(COC4)C3)c(F)c2)C(=O)O1" Test system: Escherichia coli Read-out: MIC Value: ?
4.05 µg/mL

Item: "N#Cc1ccc(NC(=S)NC[C@H]2CN(c3ccc(N4CC5(COC5)C4)c(F)c3)C(=O)O2)cc1"
9.54 µg/mL

Item: CC(=O)NC[C@H]1CN(c2ccc(N3CCOCC3)c(F)c2)C(=O)O1 [LINEZOLID]
1.15 µg/mL

Item: OC1(CNc2ccc(N3CCOCC3)c(F)c2)CCN(Cc2ccccc2)C1 (stereo not drawn)
> 100 µg/mL

Item: "O=C(NC[C@H]1CN(c2ccc(N3CC4(COC4)C3)c(F)c2)C(=O)O1)c1ccno1"
4.56 to 4.6 µg/mL

Item: "COCC(=O)NC[C@H]1CN(c2ccc(N3CC4(COC4)C3)c(F)c2)C(=O)O1"
> 100 µg/mL

Item: "CC1(C)[C@@]2(C)CC[C@]1(C(=O)NC[C@H]1CN(c3ccc(N4CC5(COC5)C4)c(F)c3)C(=O)O1)OC2=O"
> 100 µg/mL

Item: "O=C1O[C@@H](CNS(=O)(=O)c2ccc(Cl)s2)CN1c1ccc(N2CC3(COC3)C2)c(F)c1"
15.4 µg/mL

Item: "O=C(NC[C@H]1CN(c2ccc(N3CC4(COC4)C3)c(F)c2)C(=O)O1)Nc1ccc(Cl)cc1"
> 100 µg/mL

Item: "CC(=O)NC[C@H]1CN(c2ccc(C3=C[C@H]4CC[C@@H](C3)N4C(=O)OC(C)(C)C)c(F)c2)C(=O)O1"
3.66 µg/mL

Item: "O=C1O[C@@H](CNS(=O)(=O)c2cc([N+](=O)[O-])ccc2Cl)CN1c1ccc(N2CC3(COC3)C2)c(F)c1"
> 100 µg/mL

Item: CC(=O)N1CCC2(C1)CN(c1ccc(N3CCOCC3)c(F)c1)C(=O)O2 (stereo not drawn)
> 100 µg/mL

Item: "O=C1O[C@@H](CNC(=O)C23CC4CC(CC(C4)C2)C3)CN1c1ccc(N2CC3(COC3)C2)c(F)c1"
> 100 µg/mL

Item: "CC(=O)OCC(=O)NC[C@H]1CN(c2ccc(N3CC4(COC4)C3)c(F)c2)C(=O)O1"
> 100 µg/mL

Item: "O=C1O[C@@H](CNS(=O)(=O)c2cccc(C(F)(F)F)c2)CN1c1ccc(N2CC3(COC3)C2)c(F)c1"
3.03 µg/mL

Item: "COc1ccc(NC(=S)NC[C@H]2CN(c3ccc(N4CC5(COC5)C4)c(F)c3)C(=O)O2)cc1"
10.7 µg/mL

Item: "O=C1O[C@@H](CNC(=S)Nc2ccc(Cl)cc2)CN1c1ccc(N2CC3(COC3)C2)c(F)c1"
> 100 µg/mL

Item: "O=C1O[C@@H](CNC(=S)Nc2ccccc2F)CN1c1ccc(N2CC3(COC3)C2)c(F)c1"
> 100 µg/mL

Item: "CC(C)NC(=S)NC[C@H]1CN(c2ccc(N3CC4(COC4)C3)c(F)c2)C(=O)O1"
> 100 µg/mL

Item: "O=C(NC[C@H]1CN(c2ccc(N3CC4(COC4)C3)c(F)c2)C(=O)O1)c1ccc(C(F)(F)F)cc1"
> 100 µg/mL

Item: "O=C1O[C@@H](CNS(=O)(=O)c2cc(Cl)cc(Cl)c2)CN1c1ccc(N2CC3(COC3)C2)c(F)c1"
> 100 µg/mL

Item: "CC(=O)NC[C@H]1CN(c2ccc(N3CC4(COC4)C3)c(F)c2)C(=O)O1"
> 100 µg/mL

Item: O=C1OC2(CCN(Cc3ccccc3)C2)CN1c1ccc(N2CCOCC2)c(F)c1 (stereo not drawn)
> 100 µg/mL

Item: O=C1OC2(CCNC2)CN1c1ccc(N2CCOCC2)c(F)c1 (stereo not drawn)
0.554 µg/mL

Item: "O=C(NC[C@H]1CN(c2ccc(N3CC4(COC4)C3)c(F)c2)C(=O)O1)c1cccnc1"
8.33 µg/mL

Item: "O=C1O[C@@H](CNC(=S)Nc2cccc(C(F)(F)F)c2)CN1c1ccc(N2CC3(COC3)C2)c(F)c1"
2.41 µg/mL

Item: "CC(C)(C)NC(=S)NC[C@H]1CN(c2ccc(N3CC4(COC4)C3)c(F)c2)C(=O)O1"
22.8 µg/mL

Item: "O=C1O[C@@H](CNC(=S)Nc2ccc([N+](=O)[O-])cc2)CN1c1ccc(N2CC3(COC3)C2)c(F)c1"
> 100 µg/mL
